Test system: MCF7
assay.remarks: Induction of cell cycle arrest in human MCF7 cells assessed as accumulation of cells at S phase at 8.7 uM after 24 hrs by Propidium iodide staining based flow cytometric analysis (reference value: 23.75 +/- 1.87%)
Format: functional
Please go through the items and note down their Activity.
Numbers only, in %.

The following compounds have reported results that may help.
[[record]]
compound = "CC(=O)c1c(O)c(C)c(O)c2c1OC1=Cc3onc(C)c3C(=O)C12C (racemic)"
assay_metric = "Activity"
test_value = 8.35

[[record]]
compound = "CC(=O)c1c(O)c(C)c(O)c2c1OC1=CC(=O)C(C(C)=O)C(=O)C12C (stereo in doubt; (-)-1)"
assay_metric = "Activity"
test_value = 20.6

[[record]]
compound = "CC(=O)c1c(O)c(C)c(O)c2c1OC1=CC(=O)C(C(C)=O)C(=O)C12C (stereo in doubt; (+)-1)"
assay_metric = "Activity"
test_value = 22.4


Okay, next one:
Write down the reported Activity of CC(=O)c1c(O)c(C)c(O)c2c1OC1=Cc3onc(C)c3C(=O)[C@]12C , test system: MCF7. 7.25

###

Test system: MCF7
assay.remarks: Induction of cell cycle arrest in human MCF7 cells assessed as accumulation of cells at S phase at 2.9 uM after 24 hrs by Propidium iodide staining based flow cytometric analysis (reference value: 23.75 +/- 1.87%)
Type: functional
assay.metric: Activity (%)
Give bare numbers, in %.

// input: 4 compounds below; output: Activity for each
1. CC(=O)c1c(O)c(C)c(O)c2c1OC1=Cc3onc(C)c3C(=O)[C@]12C
2. CC(=O)c1c(O)c(C)c(O)c2c1OC1=CC(=O)C(C(C)=O)C(=O)C12C (stereo in doubt; (-)-1)
3. CC(=O)c1c(O)c(C)c(O)c2c1OC1=CC(=O)C(C(C)=O)C(=O)C12C (stereo in doubt; (+)-1)
4. CC(=O)c1c(O)c(C)c(O)c2c1OC1=Cc3onc(C)c3C(=O)C12C (racemic)

11.15
22.9
23
10.1

###

System: MCF7
assay.remarks: Antiproliferative activity against human MCF7 cells assessed as reduction in cell viability after 48 hrs by MTT assay
Format: functional, cell-based
experimental.conditions: Homo sapiens, MCF7, 48 h
assay.metric: IC50 (µM)
Numbers only, in µM.

[[record]]
compound = "CC(=O)c1c(O)c(C)c(O)c2c1OC1=Cc3onc(C)c3C(=O)[C@]12C"
assay_metric = "IC50"
test_value = 2.5


Okay, next one:
Write down the reported IC50 of CC(=O)c1c(O)c(C)c(O)c2c1OC1=Cc3onc(C)c3C(=O)C12C (racemic) , test system: MCF7. 2.9

###

Please go through the items and note down their IC50.
System: MCF7
assay.remarks: Antiproliferative activity against human MCF7 cells assessed as reduction in cell viability after 48 hrs by MTT assay
Format: functional, cell-based
experimental.conditions: Homo sapiens, MCF7, 48 h

The following molecules have reported results that may help.
[[record]]
molecule = "CC(=O)c1c(O)c(C)c(O)c2c1OC1=Cc3c(c(C)nn3C)C(=O)[C@]12C"
test_system = "MCF7"
assay_metric = "IC50"
test_value = "> 10 µM"

[[record]]
molecule = "CC(=O)c1c(O)c(C)c(O)c2c1OC1=Cc3c(c(C)nn3C)C(=O)C12C (racemic)"
test_system = "MCF7"
assay_metric = "IC50"
test_value = "> 10 µM"


Need IC50, item CC(=O)c1c(O)c(C)c(O)c2c1OC1=CC(=O)C(C(C)=O)C(=O)C12C (stereo in doubt; (-)-1) > 10 µM
